Value source: patent US12403137B2

Recorded pIC50 by entry
# experimentalTarget: PRMT5 (Homo sapiens)
# Construct: purchased Viva (custom protein)
# Sequence (O14744 whole entry): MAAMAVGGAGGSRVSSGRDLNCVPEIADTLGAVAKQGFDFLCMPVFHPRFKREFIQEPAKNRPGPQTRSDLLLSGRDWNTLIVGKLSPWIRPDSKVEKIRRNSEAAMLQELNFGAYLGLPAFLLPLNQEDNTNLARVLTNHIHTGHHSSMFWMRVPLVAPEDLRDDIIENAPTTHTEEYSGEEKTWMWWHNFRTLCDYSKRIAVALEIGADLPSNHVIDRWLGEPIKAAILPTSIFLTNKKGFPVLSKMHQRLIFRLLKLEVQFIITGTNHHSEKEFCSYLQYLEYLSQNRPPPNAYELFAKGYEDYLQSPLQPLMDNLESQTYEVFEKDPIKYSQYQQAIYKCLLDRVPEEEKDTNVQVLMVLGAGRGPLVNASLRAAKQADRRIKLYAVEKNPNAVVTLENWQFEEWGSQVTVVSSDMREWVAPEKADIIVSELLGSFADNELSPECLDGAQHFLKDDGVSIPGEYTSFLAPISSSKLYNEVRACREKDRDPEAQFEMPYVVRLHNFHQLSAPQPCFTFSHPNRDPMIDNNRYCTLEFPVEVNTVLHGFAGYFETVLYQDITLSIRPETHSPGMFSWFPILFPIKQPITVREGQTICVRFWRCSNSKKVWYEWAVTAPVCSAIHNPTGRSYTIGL
# Sequence (Q9BQA1 whole entry partner): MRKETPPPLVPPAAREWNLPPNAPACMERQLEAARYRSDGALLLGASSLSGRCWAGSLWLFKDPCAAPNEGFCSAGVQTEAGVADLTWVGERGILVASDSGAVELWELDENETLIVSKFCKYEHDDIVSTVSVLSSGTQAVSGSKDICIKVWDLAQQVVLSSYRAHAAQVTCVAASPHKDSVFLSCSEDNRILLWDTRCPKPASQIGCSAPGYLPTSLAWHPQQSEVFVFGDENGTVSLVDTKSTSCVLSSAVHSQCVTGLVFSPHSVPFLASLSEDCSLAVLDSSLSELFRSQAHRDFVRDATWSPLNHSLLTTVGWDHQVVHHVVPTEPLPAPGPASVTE
# measurementProtocol: PRMT5 inhibition assay with no cofactor
# Type: biochemical
# statedConditions: against PRMT5 with no cofactor; read-out: No Co-factor IC50
pIC50: −log10 of the molar value.

1) CC(=O)N1CC(Nc2cc(C(=O)NC[C@@H](O)[C@@H]3Cc4ccc(OCc5ocnc5C)cc4CN3)nc(N3CCN(C(C)C)CC3)n2)C1 ... 6.30 to 7.30
2) CC(=O)N1CCC(Nc2cc(C(=O)NC[C@@H](O)[C@@H]3Cc4ccc(OCc5ocnc5C)cc4CN3)cc(N3CCN(C(C)C)CC3)n2)CC1 ... > 7.30
3) O=C(NC[C@@H](O)[C@@H]1Cc2ccc(OCc3cnco3)cc2CN1)c1ccc(C(=O)N2[C@@H]3CCC[C@H]2COC3)cc1 ... 5.30 to 6.30
4) CC(=O)N1CC(Nc2cc(C(=O)NC[C@@H](O)[C@@H]3Cc4ccc(OCc5ocnc5C)cc4CN3)cc(N3CCCCC3)n2)C1 ... 6.30 to 7.30
5) COCCN(C)c1cc(C(=O)NC[C@@H](O)[C@@H]2Cc3ccc(OCc4ocnc4C)cc3CN2)cc(NC2CC3(CCC3)C2)n1 ... 6.30 to 7.30

// lookup pIC50 for "Cc1ncoc1COc1ccc2c(c1)CN[C@H]([C@H](O)CNC(=O)c1ccnc(Nc3cccnc3)c1)C2"
6.30 to 7.30

// lookup pIC50 for "CCOc1nc(N2CCN(C(=O)OC)CC2)ccc1C(=O)NC[C@@H](O)[C@@H]1Cc2ccc(OCc3ccnn3C)cc2CN1"
5.30 to 6.30

// lookup pIC50 for "CCOc1cc(C(=O)N2[C@@H]3CCC[C@H]2COC3)ccc1C(=O)NC[C@@H](O)[C@@H]1Cc2ccc(OCc3ocnc3C)cc2CN1"
6.30 to 7.30

// lookup pIC50 for "Cc1ncoc1COc1ccc2c(c1)CN[C@H]([C@H](O)CNC(=O)c1cc(NC3CC4(CCC4)C3)nc(N3CCN(C(C)C)CC3)n1)C2"
> 7.30
